# protocol: Enhancement of the oral bioavailability of paclitaxel and docetaxel in rats
# Format: in vivo
# reported-conditions: male, Sprague-Dawley, rat, plasma, 10 mg/kg, Drug alone (10 mg/kg) oral, control of the OCFB series, read-out: AUC0-8
Documented AUC(0-t) across a set of compounds
Numbers only here, please. The scale is ng·h/mL.

INSERT INTO assay_data (compound_structure_string, property_label, unit_name, data_value) VALUES
  ('CC(=O)O[C@@]12CO[C@@H]1C[C@H](O)[C@@]1(C)C(=O)[C@H](O)C3=C(C)[C@@H](OC(=O)[C@H](O)[C@@H](NC(=O)OC(C)(C)C)c4ccccc4)C[C@@](O)([C@@H](OC(=O)c4ccccc4)[C@H]21)C3(C)C', 'AUC(0-t)', 'ng·h/mL', 32);

Per the records, this compound ( "CC(=O)O[C@H]1C(=O)[C@@]2(C)[C@H]([C@H](OC(=O)c3ccccc3)[C@]3(O)C[C@H](OC(=O)[C@H](O)[C@@H](NC(=O)c4ccccc4)c4ccccc4)C(C)=C1C3(C)C)[C@]1(OC(C)=O)CO[C@@H]1C[C@@H]2O" ) has AUC(0-t) equal to 266

* * *

# protocol: in vivo
# reported-conditions: male, Sprague Dawley, rat, Concentration of Saquinavir in plasma, 0.25 hr Post-Dose, Mean
property-label: concentration at 0.25 hr (ng/mL)
Numbers only here, please. The scale is ng/mL.

Per the records, this molecule ( "CC(C)(C)NC(=O)[C@@H]1C[C@@H]2CCCC[C@@H]2CN1C[C@@H](O)[C@H](Cc1ccccc1)NC(=O)[C@H](CC(N)=O)NC(=O)c1ccc2ccccc2n1" ) has concentration at 0.25 hr equal to 84.6

* * *

# protocol: in vivo
# reported-conditions: male, Sprague Dawley, rat, Concentration of Saquinavir in plasma, 8 hr Post-Dose, Mean
property-label: concentration at 8 hr (ng/mL)
Numbers only here, please. The scale is ng/mL.

Per the records, this compound ( CC(C)(C)NC(=O)[C@@H]1C[C@@H]2CCCC[C@@H]2CN1C[C@@H](O)[C@H](Cc1ccccc1)NC(=O)[C@H](CC(N)=O)NC(=O)c1ccc2ccccc2n1 [Saquinavir] ) has concentration at 8 hr equal to 4.92

* * *

# Test system: CEM/VLB1000
# protocol: Reversal of MDR in P-gp-expressing cell line
# Format: cell-based
# reported-conditions: Homo sapiens; CEM/VLB1000 lymphoma; ± SD; read-out: Formula 2 compound EC50, reversal of Vinblastine resistance
property-label: EC50 (nM)
Numbers only here, please. The scale is nM.

Bench note, CEM/VLB1000: CCOC/C=C/c1ccc(-c2nc(-c3ccc(NC(C)C)cc3)c(-c3ccc(NC(C)C)cc3)[nH]2)cc1 [Formula 2 compound] , EC50 reads 70

* * *

# protocol: in vivo
# reported-conditions: male, Sprague Dawley, rat, po, 20 mg/kg
property-label: AUC(0-t)

Per the records, this compound ( "CC(C)(C)NC(=O)[C@@H]1C[C@@H]2CCCC[C@@H]2CN1C[C@@H](O)[C@H](Cc1ccccc1)NC(=O)[C@H](CC(N)=O)NC(=O)c1ccc2ccccc2n1" ) has AUC(0-t) equal to 514 ng·h/mL

* * *

# protocol: in vivo
# reported-conditions: male, Sprague Dawley, rat, po, 20 mg/kg
property-label: CL/F

Per the records, this compound ( "CC(C)(C)NC(=O)[C@@H]1C[C@@H]2CCCC[C@@H]2CN1C[C@@H](O)[C@H](Cc1ccccc1)NC(=O)[C@H](CC(N)=O)NC(=O)c1ccc2ccccc2n1" ) has CL/F equal to 654 mL/min/kg
